EC50 for assorted compounds
# systemName: Voltage-dependent T-type calcium channel subunit alpha-1H (Homo sapiens, UniProt O95180);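 further: channel activity triggered by adding a high calcium stimulation buffer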
# Sequence (O95180 whole entry): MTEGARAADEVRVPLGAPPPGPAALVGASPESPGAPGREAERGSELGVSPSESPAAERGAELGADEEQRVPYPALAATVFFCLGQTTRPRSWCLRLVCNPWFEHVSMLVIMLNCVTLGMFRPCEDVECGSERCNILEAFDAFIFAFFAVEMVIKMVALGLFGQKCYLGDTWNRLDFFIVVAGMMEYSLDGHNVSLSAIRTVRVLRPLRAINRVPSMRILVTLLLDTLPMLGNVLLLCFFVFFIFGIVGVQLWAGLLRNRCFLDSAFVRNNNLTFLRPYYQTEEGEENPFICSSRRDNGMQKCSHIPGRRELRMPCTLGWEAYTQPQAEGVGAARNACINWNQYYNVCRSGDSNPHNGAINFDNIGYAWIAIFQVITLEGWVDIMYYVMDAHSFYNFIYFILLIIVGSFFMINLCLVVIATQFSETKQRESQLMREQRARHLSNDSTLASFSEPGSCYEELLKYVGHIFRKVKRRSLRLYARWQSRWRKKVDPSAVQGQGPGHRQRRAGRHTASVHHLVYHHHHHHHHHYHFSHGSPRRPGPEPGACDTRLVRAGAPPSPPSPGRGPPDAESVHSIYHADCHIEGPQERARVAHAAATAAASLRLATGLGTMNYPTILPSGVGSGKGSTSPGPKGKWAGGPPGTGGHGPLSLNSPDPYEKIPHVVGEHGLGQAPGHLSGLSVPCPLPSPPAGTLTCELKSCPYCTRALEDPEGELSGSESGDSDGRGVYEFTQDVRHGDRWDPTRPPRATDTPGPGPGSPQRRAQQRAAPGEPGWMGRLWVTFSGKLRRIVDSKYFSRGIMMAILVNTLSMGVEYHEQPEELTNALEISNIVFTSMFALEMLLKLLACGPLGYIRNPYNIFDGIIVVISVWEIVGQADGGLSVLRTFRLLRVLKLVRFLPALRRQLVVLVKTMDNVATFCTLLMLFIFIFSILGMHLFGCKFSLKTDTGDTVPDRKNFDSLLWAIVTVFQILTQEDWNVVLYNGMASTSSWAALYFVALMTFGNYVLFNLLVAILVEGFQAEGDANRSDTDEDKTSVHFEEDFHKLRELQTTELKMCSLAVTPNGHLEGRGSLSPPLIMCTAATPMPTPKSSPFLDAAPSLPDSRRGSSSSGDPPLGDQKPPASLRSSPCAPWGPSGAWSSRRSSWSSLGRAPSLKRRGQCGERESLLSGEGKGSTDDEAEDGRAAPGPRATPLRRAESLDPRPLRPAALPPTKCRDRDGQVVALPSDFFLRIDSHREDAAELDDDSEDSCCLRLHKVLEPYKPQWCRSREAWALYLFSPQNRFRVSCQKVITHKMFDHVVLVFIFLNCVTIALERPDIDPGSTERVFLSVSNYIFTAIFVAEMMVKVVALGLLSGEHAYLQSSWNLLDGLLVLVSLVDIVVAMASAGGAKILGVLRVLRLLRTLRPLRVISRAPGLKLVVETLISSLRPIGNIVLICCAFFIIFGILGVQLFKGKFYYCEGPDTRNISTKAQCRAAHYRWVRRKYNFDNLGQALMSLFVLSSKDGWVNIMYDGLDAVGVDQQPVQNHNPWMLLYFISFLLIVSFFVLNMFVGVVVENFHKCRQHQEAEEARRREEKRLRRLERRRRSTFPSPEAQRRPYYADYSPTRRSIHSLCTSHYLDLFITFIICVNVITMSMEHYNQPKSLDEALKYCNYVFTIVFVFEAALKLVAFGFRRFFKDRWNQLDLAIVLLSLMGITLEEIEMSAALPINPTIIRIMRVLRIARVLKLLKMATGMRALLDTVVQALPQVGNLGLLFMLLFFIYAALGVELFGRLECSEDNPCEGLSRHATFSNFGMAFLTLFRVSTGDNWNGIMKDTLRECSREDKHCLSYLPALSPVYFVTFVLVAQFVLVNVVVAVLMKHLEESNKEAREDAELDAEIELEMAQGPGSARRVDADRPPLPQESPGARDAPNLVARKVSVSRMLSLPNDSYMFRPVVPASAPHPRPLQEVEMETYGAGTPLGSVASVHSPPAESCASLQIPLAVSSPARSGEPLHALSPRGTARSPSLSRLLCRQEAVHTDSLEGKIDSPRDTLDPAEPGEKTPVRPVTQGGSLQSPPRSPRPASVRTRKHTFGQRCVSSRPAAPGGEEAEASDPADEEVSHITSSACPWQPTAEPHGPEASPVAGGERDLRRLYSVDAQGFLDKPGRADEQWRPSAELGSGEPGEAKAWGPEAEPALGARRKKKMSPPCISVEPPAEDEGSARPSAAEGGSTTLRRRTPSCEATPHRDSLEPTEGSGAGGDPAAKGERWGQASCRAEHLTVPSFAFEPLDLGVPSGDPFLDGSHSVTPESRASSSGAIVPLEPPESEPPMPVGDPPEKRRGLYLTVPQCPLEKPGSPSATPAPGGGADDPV
# Type: functional
The source made the active and inactive calls.

compound	measuredProperty	valueMeasured
C=CCc1cc(C)ccc1OCC(O)CN1CCN(c2ccccc2)CC1 (configuration not stated)	EC50	8.33 µM (active)
O=C(Nc1ncc(Br)s1)C(Cc1ccccc1)n1cccc1 (configuration not stated)	EC50	1.33 µM (active)
Cc1ccc(-c2noc(CCC(=O)Nc3cccc(C#N)c3)n2)cc1	EC50	2.84 µM (active)
Cc1ccccc1-n1nc2c(c1NC(=O)c1ccc(Br)o1)CSC2	EC50	5.29 µM (active)
Cc1ccc(S(=O)(=O)N(CC(=O)N2CCN(c3ccc(F)cc3)CC2)C2CCCCC2)cc1	EC50	4.33 µM (active)
COc1ccc(C(c2nnnn2Cc2ccc(F)cc2)N2CCN(c3ccccc3)CC2)cc1 (configuration not stated)	EC50	2.66 µM (active)

Let us move to another entry and its EC50.
Quick one: EC50 for Clc1ccc(CSc2nnnn2-c2ccc3c(c2)OCO3)c(Cl)c1 ?
9.79 µM (active)

Sourced from ChEMBL document CHEMBL1201862
